B1: Transcription intermediary factor 1-beta, residues 620 to 671; numbered along this chain, Q13263 (parent)
chain: TLDDSATICRVCQKPGDLVMCNQCEFCFHLDCHLPALQDVPGEEWSCSLCHV

Variants of: B1
assay.info: abundance fitness (aPCA) (normalised: wild type 0, dead -1); higher = more abundant; growth selection in yeast, the domain comes from the species named
condition.context: Homo sapiens
Binning rule for recorded abundance fitness: low class (below -0.5), middle class (-0.5 to below -0.2), high class (-0.2 or more)

{"mutant.name": "A6C", "class.label": "low class"}
{"mutant.name": "F28R", "class.label": "middle class"}
{"mutant.name": "S48L", "class.label": "middle class"}
{"mutant.name": "A6E", "class.label": "high class"}
{"mutant.name": "S48C", "class.label": "middle class"}

Exercise: // bin(item) where item = "E43N"
Key: high class

Exercise: Category of "E43P" :
Key: high class

Exercise: For this variant, which bin applies? "F28E"
Key: middle class

Exercise: Lab note: sort "V40F" into the matching abundance fitness band.
Key: high class

Exercise: Note: place this variant into its band. Item: "H51F"
Key: middle class
